test system: SF-539 CNS; test: NCI-60 one-dose screen, 48 h (100 = growth as untreated, 0 = no growth, -100 = all killed); conditions: 10 µM unless noted
About 83,000 compounds went through this panel and 20% of them were active in at least one assay; those are over-represented in the sample as a whole.
Tag: Yes if measured growth is not below 80%, No if it is.

// below: answered molecules
query: Determine whether this molecule has growth no lower than 80%: COC(=O)C(N)CSC(c1ccccc1)(c1ccccc1)c1ccccc1 (stereo unspecified)
result: No

query: Determine whether this molecule has growth no lower than 80%: `CC(C)=CCC[C@](C)(O)[C@H]1CC[C@]2(C)[C@@H]1CC[C@@H]1[C@@]3(C)C/C(=C/c4cccc([N+](=O)[O-])c4)C(=O)C(C)(C)[C@@H]3CC[C@]12C`
result: Yes

query: Determine whether this molecule has growth no lower than 80%: `COc1ccc2c(c1)c(-c1nc(-c3cn(C)c4ncccc34)cs1)cn2CCCN1CCCCC1`
result: No

query: Determine whether this molecule has growth no lower than 80%: `Cn1cc(-c2csc(-c3cn(CCN)c4ccc(Br)cc34)n2)c2cccnc21`
result: Yes

query: Determine whether this molecule has growth no lower than 80%: `CCCNc1nc(N(C)O)nc(N(C)O)n1`
result: No

query: Determine whether this molecule has growth no lower than 80%: `CC(C)(C)c1ccc(OCCCCCCCN2CCNCC2)cc1`
result: No

---
query: Determine whether this molecule has growth no lower than 80%: `CC1(C)CC[C@]2(CO)CC[C@]3(C)C(=CC[C@@H]4[C@@]5(C)CC[C@H](NCO)C(C)(C)[C@@H]5CC[C@]43C)[C@@H]2C1`
result: No

query: Determine whether this molecule has growth no lower than 80%: `Cc1nn(-c2ccc(Br)cc2)c2nc3[nH]c(=O)[nH]c(=O)c3nc12`
result: Yes

---

tested on: NCI-H522 lung; test: NCI-60 one-dose screen, 48 h (100 = growth as untreated, 0 = no growth, -100 = all killed); conditions: 10 µM unless noted
About 83,000 compounds went through this panel and 20% of them were active in at least one assay; those are over-represented in the sample as a whole.
Tag: Yes if measured growth is not below 50%, No if it is.

// below: answered compounds
query: Determine whether this compound has growth no lower than 50%: `O=C(CCCCCn1c2ccccc2c2c3c(c4c5ccccc5[nH]c4c21)C(=O)N(O)C3=O)N1CCOCC1`
result: No

query: Determine whether this compound has growth no lower than 50%: `Cc1cc(N(CCCNc2ccnc3cc(Cl)ccc23)Cc2ccco2)nc(N2CCOCC2)n1`
result: Yes

query: Determine whether this compound has growth no lower than 50%: CC(=O)O[C@H]1CC[C@@]2(C)[C@@H](CC[C@@H]3[C@@H]2CC(=O)[C@@]2(C)[C@H]3C[C@@H](C3CCCC3=O)[C@@H]2C(C)=O)C1 (stereo partly specified)
result: Yes

query: Determine whether this compound has growth no lower than 50%: Cc1ccc(NC2CC(=O)N(c3c(C)cc(C)cc3C)C2=O)c(C)c1 (stereo unspecified)
result: Yes

query: Determine whether this compound has growth no lower than 50%: `COc1ccc2nc(-c3cc(-c4cc(OC)c(OC)c(OC)c4)n[nH]3)[nH]c2c1`
result: No

query: Determine whether this compound has growth no lower than 50%: `O=C(NC1=CC(=O)c2ccccc2C1=O)c1ccccc1`
result: No

---
query: Determine whether this compound has growth no lower than 50%: `CN1CCN(c2nc(-c3cccc4ccccc34)nc3sc4c(c23)CCCCCC4)CC1`
result: Yes

query: Determine whether this compound has growth no lower than 50%: `Nc1ccc(Cl)cn1`
result: Yes
